system_tested: human M3 muscarinic receptor (Homo sapiens, UniProt P20309)
Construct: purchased PerkinElmer Life and Analytical Sciences, Boston, MA
Sequence (P20309 whole entry): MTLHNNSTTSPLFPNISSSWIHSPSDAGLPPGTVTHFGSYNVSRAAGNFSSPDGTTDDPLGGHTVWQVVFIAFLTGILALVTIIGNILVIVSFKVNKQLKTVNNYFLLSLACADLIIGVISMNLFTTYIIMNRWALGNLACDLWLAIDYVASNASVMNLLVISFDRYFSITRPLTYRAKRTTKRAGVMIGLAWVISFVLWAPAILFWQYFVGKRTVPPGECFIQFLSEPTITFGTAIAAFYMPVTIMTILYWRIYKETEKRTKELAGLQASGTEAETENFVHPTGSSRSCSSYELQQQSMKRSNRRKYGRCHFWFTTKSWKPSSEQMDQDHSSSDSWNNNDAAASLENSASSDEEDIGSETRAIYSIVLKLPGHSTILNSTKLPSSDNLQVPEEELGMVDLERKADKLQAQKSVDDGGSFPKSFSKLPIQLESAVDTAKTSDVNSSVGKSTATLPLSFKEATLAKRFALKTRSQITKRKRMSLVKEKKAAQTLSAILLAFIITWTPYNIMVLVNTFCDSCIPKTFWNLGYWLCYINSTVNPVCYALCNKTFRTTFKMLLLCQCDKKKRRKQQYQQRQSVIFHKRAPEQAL
experimental_protocol: GTP-γ-[35S] binding, antibody capture SPA (agonist and antagonist mode)
Format: biochemical
attribute_measured: IC50 (nM)
Supply the numeric figure in nM, leaving out any unit text.

// sample CCCSc1nsnc1[C@H]1CN2CCC[C@H]1C2 , its IC50 was 20.4

----------
system_tested: human M1 muscarinic receptor (Homo sapiens)
Sequence (P11229 1-460): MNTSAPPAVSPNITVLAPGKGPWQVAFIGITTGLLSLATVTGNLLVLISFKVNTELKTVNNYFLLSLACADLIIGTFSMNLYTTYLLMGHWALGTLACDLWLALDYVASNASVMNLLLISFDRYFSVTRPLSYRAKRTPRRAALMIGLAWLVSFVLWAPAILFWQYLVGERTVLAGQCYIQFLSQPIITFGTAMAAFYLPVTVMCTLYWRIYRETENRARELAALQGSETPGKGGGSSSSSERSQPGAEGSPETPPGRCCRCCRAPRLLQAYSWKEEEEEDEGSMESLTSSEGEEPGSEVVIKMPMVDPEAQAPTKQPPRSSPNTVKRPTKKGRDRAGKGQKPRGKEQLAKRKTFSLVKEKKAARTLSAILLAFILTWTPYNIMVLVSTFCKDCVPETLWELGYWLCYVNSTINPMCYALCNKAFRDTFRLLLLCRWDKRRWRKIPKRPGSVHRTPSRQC
attribute_measured: pIC50
Remember the convention: pIC50 equals -log10 of concentration in molar.

The reported pIC50 of the compound CCCSc1nsnc1[C@H]1CN2CCC[C@H]1C2 was 9.03

Entry source: paper PMC4399838
